details: 403.15 K; 101.33 kPa; Liquid; Concentric cylinders viscometry
MEASUREMENT_LABEL: viscosity (mPa·s)

{"MOLECULE": "CCC[NH+](CC)CC.O=S(=O)([O-])C(F)(F)F [N,N-diethylpropan-1-aminium trifluoromethanesulfonate]", "VALUE_UNIT": "mPa·s", "viscosity": 4.87}
{"MOLECULE": "CC[NH+](C)CC.O=S(=O)([O-])C(F)(F)F [diethylmethylammonium trifluoromethanesulfonate]", "VALUE_UNIT": "mPa·s", "viscosity": 4.41}
{"MOLECULE": "CCC[NH+](C)CCC.O=S(=O)([O-])C(F)(F)F [N-methyl-N-propylpropan-1-aminium trifluoromethanesulfonate]", "VALUE_UNIT": "mPa·s", "viscosity": 4.4}
{"MOLECULE": "CCC[NH+](C)C.O=S(=O)([O-])C(F)(F)F [N,N-dimethylpropan-1-aminium trifluoromethanesulfonate]", "VALUE_UNIT": "mPa·s", "viscosity": 4.04}
{"MOLECULE": "C=CC[NH+](CC)CC.O=S(=O)([O-])C(F)(F)F [N,N-diethylprop-2-en-1-aminium trifluoromethanesulfonate]", "VALUE_UNIT": "mPa·s", "viscosity": 4.94}
{"MOLECULE": "C=CC[NH+](C)C.O=S(=O)([O-])C(F)(F)F [N,N-dimethylprop-2-en-1-aminium trifluoromethanesulfonate]", "VALUE_UNIT": "mPa·s", "viscosity": 3.95}
